Assay: Rate of decomposition in aqueous solution (pH 8.0, 30 degree Celsius) at 690 min
Format: ADME
Settings: buffer, pH 8, 11.5 h
value_kind: k (min⁻¹)
# unit: min⁻¹ | format: bare number

Input: Identify k associated with the compound CC/C(=C\C(=N\O)C(N)=O)C(C(C)C)[N+](=O)[O-] (stereo unspecified)
Output: 0.001

* * *

Experiment: Rate of decomposition in aqueous solution (pH 8.0, 30 degree Celsius) at 84 min
Format: ADME
Details: buffer, pH 8, 1.4 h
value_kind: k

Input: Identify k associated with the compound O=C(NCC(/C=C1\CCCCC1[N+](=O)[O-])=N\O)c1cccnc1 (stereo unspecified)
Output: 0.0083 min⁻¹

* * *

Test: Half life was determined
Format: ADME
Conditions: rat
The recorded half-life of each item maps onto one of these classes: low interval: < 2 h; middle interval: ≥ 2 h and < 6 h; high interval: ≥ 6 h

Take a look at these entries with their results.
CC(=O)NCC(/C=C1\CCCCC1[N+](=O)[O-])=N\O (stereo unspecified)    low interval
CC/C(=C\C(=N\O)C(N)=O)C(C(C)C)[N+](=O)[O-] (stereo unspecified)    high interval
CC/C(=C\C(=N\O)C(N)=O)C([N+](=O)[O-])C(C)(C)C (stereo unspecified)    high interval
CC/C(=C\C(CNC(=O)c1cccnc1)=N\O)C(C)[N+](=O)[O-] (stereo unspecified)    low interval
CC/C(=C\C(CNC(C)=O)=N\O)C(C)[N+](=O)[O-] (stereo unspecified)    low interval

Input: In plain terms, what class is CC/C(=C\C(=N\O)C(N)=O)C(CC)[N+](=O)[O-] (stereo unspecified) ?
Output: middle interval

Input: In plain terms, what class is CC/C(=C\C(CNC(C)=O)=N\O)C(CC)[N+](=O)[O-] (stereo unspecified) ?
Output: middle interval

Input: In plain terms, what class is CC(C)/C(=C\C(CNC(=O)c1cccnc1)=N\O)C(C)[N+](=O)[O-] (stereo unspecified) ?
Output: high interval

Input: In plain terms, what class is CC/C(=C\C(=N\O)C(N)=O)C(C)[N+](=O)[O-] (stereo unspecified) ?
Output: low interval

* * *

Experiment: Rate of decomposition in aqueous solution (pH 8.0, 30 degree Celsius) at 46 min
Type: ADME
Conditions: buffer, pH 8, 46 min
value_kind: k (s⁻¹)
# unit: s⁻¹ | format: bare number

Input: Identify k associated with the molecule CC/C(=C\C(=N\O)C(N)=O)C(C)[N+](=O)[O-] (stereo unspecified)
Output: 0.00025

* * *

Listing: log10 of half-life of selected molecules
Test: Half life was determined
Type: ADME
Conditions: rat
Note the log scale: values are log10 of half-life expressed in h.

O=C(NCC(/C=C1\CCCCC1[N+](=O)[O-])=N\O)c1cccnc1 (configuration not stated)    0.15
CC(C)/C(=C\C(=N\O)C(N)=O)C(C)[N+](=O)[O-] (configuration not stated)    0.50
CC/C(=C\C(CNC(C)=O)=N\O)C(C(C)C)[N+](=O)[O-] (configuration not stated)    1.40
CC/C(=C\C(CNC(=O)c1cccnc1)=N\O)C(C(C)C)[N+](=O)[O-] (configuration not stated)    1.48
COCC(/C(C)=C/C(CNC(=O)c1cccnc1)=N/O)[N+](=O)[O-] (configuration not stated)    -1.05

Input: Identify log10 of half-life associated with the molecule NC(=O)C(/C=C1\CCCCC1[N+](=O)[O-])=N\O (configuration not stated)
Output: -0.23

Input: Identify log10 of half-life associated with the molecule COCC(/C(C)=C/C(=N/O)C(N)=O)[N+](=O)[O-] (configuration not stated)
Output: -1.36
